# SYSTEM NAME: Sodium channel protein type 9 subunit alpha (Homo sapiens)
# RUN DESCRIPTION: Inhibition of human Nav1.7 expressed in HEK293 cells assessed as inhibition of peak current after 50 secs by automated patch clamp assay
pIC50: −log10 of the molar value.
EXPERIMENTAL ENDPOINT: pIC50

| GIVEN SMILES | EXPERIMENTAL ENDPOINT | VALUE MEASURED |
| --- | --- | --- |
| CS(=O)(=O)NC(=O)c1cc(Cl)c(-n2nc(F)c3cc(-c4cccc(F)c4)ccc32)cc1F | pIC50 | 7.05 |
| CS(=O)(=O)NC(=O)c1cc(Cl)c(-n2nc(Cl)c3cc(-c4ccc(OC(F)(F)F)cc4)ccc32)cc1F | pIC50 | 7.10 |
| Cc1cc(F)ccc1-c1cnc2c(c1)c(Cl)cn2-c1cc(F)c(C(=O)NS(C)(=O)=O)cc1Cl | pIC50 | 7.05 |
| CS(=O)(=O)NC(=O)c1cc(Cl)c(-n2ncc3cc(-c4cccc(Cl)c4)ccc32)cc1F | pIC50 | 7.15 |
| CS(=O)(=O)NC(=O)c1cc(Cl)c(-n2ncc3cc(-c4ccc(Cl)cc4F)ccc32)cc1F | pIC50 | 7.15 |
| CS(=O)(=O)NC(=O)c1cc(Cl)c(-n2nc(Cl)c3cc(-c4cc(F)ccc4F)ccc32)cc1F | pIC50 | 7.05 |
| Cc1cccc(-c2ccc3c(c2)c(Cl)nn3-c2cc(F)c(C(=O)NS(C)(=O)=O)cc2Cl)c1 | pIC50 | 7.41 |
| CS(=O)(=O)NC(=O)c1cc(Cl)c(-n2nc(F)c3cc(-c4cccc(Cl)c4)ccc32)cc1F | pIC50 | 7.40 |
| COc1cccc(-c2ccc3c(c2)c(F)nn3-c2cc(F)c(C(=O)NS(C)(=O)=O)cc2Cl)c1 | pIC50 | 7.10 |
| CS(=O)(=O)NC(=O)c1cc(Cl)c(-n2cc(Cl)c3cc(-c4ccc(C(F)(F)F)cc4)cnc32)cc1F | pIC50 | 7.30 |
| CS(=O)(=O)NC(=O)c1cc(Cl)c(-n2cc(Cl)c3cc(-c4ccc(F)cc4Cl)cnc32)cc1F | pIC50 | 7.40 |
| CS(=O)(=O)NC(=O)c1cc(Cl)c(-n2cc(F)c3cc(-c4ccc(C(F)(F)F)cc4)cnc32)cc1F | pIC50 | 7.30 |
| CS(=O)(=O)NC(=O)c1cc(Cl)c(-n2nc(Cl)c3cc(OCc4ccc5ccccc5c4)ccc32)cc1F | pIC50 | 8.12 |

---

# SYSTEM NAME: Sodium channel protein type 9 subunit alpha (Homo sapiens, UniProt Q15858)
# Sequence (Q15858 whole entry): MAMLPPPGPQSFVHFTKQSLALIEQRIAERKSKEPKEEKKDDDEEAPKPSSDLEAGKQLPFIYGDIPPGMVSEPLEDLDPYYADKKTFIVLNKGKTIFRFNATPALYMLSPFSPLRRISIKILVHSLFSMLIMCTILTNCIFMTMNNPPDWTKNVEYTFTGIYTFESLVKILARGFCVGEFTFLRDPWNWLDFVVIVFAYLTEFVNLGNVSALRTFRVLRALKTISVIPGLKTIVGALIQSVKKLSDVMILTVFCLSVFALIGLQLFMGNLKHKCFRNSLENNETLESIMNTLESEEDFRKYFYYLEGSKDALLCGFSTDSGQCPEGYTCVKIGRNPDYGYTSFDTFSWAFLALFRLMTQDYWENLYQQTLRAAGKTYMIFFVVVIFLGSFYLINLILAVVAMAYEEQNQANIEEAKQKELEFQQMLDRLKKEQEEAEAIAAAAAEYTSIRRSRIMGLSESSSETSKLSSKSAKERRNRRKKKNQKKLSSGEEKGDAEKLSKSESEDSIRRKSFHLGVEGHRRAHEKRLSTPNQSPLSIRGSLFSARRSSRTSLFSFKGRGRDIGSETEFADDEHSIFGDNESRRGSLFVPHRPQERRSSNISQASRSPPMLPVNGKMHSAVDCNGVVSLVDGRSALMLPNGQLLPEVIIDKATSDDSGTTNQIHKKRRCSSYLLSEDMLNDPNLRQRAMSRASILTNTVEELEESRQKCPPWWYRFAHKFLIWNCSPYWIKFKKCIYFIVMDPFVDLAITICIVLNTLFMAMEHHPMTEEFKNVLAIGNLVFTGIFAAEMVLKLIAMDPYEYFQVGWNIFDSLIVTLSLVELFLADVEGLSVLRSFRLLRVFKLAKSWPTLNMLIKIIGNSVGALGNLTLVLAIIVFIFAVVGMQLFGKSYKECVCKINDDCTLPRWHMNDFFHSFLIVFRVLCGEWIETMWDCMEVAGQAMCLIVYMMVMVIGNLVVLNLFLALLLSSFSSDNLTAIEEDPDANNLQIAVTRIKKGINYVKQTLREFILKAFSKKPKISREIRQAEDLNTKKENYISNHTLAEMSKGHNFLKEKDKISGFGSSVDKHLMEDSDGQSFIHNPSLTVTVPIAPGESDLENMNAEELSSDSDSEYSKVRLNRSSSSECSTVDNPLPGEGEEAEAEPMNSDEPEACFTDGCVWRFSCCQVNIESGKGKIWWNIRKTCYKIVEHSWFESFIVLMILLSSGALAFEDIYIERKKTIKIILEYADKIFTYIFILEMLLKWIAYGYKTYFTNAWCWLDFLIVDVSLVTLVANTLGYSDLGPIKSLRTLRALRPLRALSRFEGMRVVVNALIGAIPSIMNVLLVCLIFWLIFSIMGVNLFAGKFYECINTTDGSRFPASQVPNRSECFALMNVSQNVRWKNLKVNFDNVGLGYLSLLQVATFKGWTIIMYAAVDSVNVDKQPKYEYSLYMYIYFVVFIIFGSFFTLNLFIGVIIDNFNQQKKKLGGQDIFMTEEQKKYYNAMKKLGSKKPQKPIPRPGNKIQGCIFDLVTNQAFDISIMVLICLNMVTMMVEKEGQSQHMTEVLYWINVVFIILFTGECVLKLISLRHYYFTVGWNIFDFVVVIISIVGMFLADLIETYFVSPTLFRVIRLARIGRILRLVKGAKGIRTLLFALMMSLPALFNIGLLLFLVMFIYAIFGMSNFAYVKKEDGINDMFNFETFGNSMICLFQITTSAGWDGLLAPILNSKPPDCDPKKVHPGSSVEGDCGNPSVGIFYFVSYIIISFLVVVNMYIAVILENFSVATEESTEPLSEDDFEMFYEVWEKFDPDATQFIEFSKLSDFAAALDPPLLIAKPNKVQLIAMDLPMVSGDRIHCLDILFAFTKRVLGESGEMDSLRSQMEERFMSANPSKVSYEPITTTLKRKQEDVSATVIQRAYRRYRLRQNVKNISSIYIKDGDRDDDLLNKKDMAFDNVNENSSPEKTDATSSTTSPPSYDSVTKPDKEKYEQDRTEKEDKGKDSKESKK
# RUN DESCRIPTION: Inhibition of human Nav1.7 expressed in HEK293 cells assessed as inhibition of peak current after 50 secs by automated patch clamp assay
List of IC50 values.
EXPERIMENTAL ENDPOINT: IC50 (nM)

| GIVEN SMILES | VALUE MEASURED |
| --- | --- |
| CS(=O)(=O)NC(=O)c1cc(Cl)c(-n2cc(F)c3cc(-c4cccc(Cl)c4F)cnc32)cc1F | 40 |
| CS(=O)(=O)NC(=O)c1cc(Cl)c(-n2cc(Cl)c3cc(-c4ccc(F)cc4F)cnc32)cc1F | 80 |
| CS(=O)(=O)NC(=O)c1cc(Cl)c(-n2nc(Cl)c3cc(-c4cccc(Cl)c4F)ccc32)cc1F | 70 |
| CS(=O)(=O)NC(=O)c1cc(Cl)c(-n2cc(F)c3cc(-c4cccc(Cl)c4)cnc32)cc1F | 50 |
